target: TNF-a receptor (TNF-R1 reporter cells) (Homo sapiens, UniProt P19438); construct: development described in WO2022125865A2; test: TNF-a-receptor GFP reporter cell screen; settings: reducing TNF-a-receptor reporter activities; GFP percentage by microscope, 48 hours
Endpoint: pIC50
Answers are plain numbers, as −log10 of the molar value.

Reference set, count: 6
>>> df
                                   molecule                               test_target  recorded_measurement
0  O=C(NCc1cccc(Cl)c1)C1(Cc2cscn2)CC2CCC1N2 (stereo not drawn) [Compound 48]  TNF-a receptor (TNF-R1 reporter cells) (Homo sapiens, UniProt P19438)                  5.44
1  CS(=O)(=O)c1ccc(C2(C(=O)N3CCSCC3)CCCCC2)cc1 [Compound 41]  TNF-a receptor (TNF-R1 reporter cells) (Homo sapiens, UniProt P19438)                  5.23
2  CC(C)CN1CCc2[nH]cnc2C12CCN(C(=O)c1cccc(F)c1)CC2 [Compound 27]  TNF-a receptor (TNF-R1 reporter cells) (Homo sapiens, UniProt P19438)                  5.66
3  CC(C)(CO)CNC1CC(C)(C)Cc2c1cnn2-c1cccc(F)c1 (stereo not drawn) [Compound 63]  TNF-a receptor (TNF-R1 reporter cells) (Homo sapiens, UniProt P19438)                  5.75
4  COCCn1ccnc1CN(CCO)CCCOc1ccc(Cl)cc1Cl [Compound 13]  TNF-a receptor (TNF-R1 reporter cells) (Homo sapiens, UniProt P19438)                  5.71
5  CCOC(=O)c1ccccc1NC(=O)N1CCCN(S(=O)(=O)c2ccc3c(ccn3CC)c2)CC1 [Compound 36]  TNF-a receptor (TNF-R1 reporter cells) (Homo sapiens, UniProt P19438)                  5.11

Please state pIC50 for every molecule in the list that follows.
1. COc1ccc(NC(=O)CSc2nc3ccccc3n2CC(=O)N(C)C2CCCCC2)cc1 [Compound 60]
2. O=C(c1ccccc1OC(F)(F)C(F)F)N1CCNC(=O)C12CCCC2 [Compound 76]
3. CCCN(C/C=C/c1ccccc1)C(=O)CCc1cc2n(n1)CCCNC2 [Compound 52]

Outgoing:
5.16
5.87
5.07

====

Answer each item with its documented Emax.
Molecular target: IL-17 receptor (the IL-17RA-IL-17RC heterodimer) (Mus musculus, UniProt Q60943+Q8K4C2, F156E)
Sequence (Q60943 32-358): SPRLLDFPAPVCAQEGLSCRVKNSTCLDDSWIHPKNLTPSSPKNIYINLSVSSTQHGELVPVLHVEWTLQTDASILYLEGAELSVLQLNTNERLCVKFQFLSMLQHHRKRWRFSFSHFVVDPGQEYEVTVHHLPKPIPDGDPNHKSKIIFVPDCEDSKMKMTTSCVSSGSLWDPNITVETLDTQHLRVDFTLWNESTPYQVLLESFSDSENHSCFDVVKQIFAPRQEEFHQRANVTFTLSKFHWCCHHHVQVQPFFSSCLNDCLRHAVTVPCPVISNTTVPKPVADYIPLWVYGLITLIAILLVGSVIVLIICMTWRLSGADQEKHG
Sequence (Q8K4C2 22-500 F156E): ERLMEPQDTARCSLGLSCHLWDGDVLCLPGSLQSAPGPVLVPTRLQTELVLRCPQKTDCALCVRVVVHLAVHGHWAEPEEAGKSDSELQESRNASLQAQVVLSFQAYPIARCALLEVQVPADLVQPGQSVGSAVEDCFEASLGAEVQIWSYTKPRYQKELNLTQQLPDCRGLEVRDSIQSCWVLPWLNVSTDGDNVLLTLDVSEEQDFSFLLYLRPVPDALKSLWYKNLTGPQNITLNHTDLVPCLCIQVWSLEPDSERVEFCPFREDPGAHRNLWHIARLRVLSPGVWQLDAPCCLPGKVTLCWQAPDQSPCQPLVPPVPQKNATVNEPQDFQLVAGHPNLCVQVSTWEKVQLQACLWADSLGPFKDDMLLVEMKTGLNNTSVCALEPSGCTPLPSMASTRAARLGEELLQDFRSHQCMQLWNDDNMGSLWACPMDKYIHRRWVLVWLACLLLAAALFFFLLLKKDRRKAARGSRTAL
Sequence (Q62386 26-158 partner): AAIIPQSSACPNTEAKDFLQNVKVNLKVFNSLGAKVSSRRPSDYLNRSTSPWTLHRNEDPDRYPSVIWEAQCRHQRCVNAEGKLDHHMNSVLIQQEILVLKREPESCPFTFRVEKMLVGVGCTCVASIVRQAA
Experiment: IL-17A-receptor (IL-17RA/IL-17RC) GFP reporter cell screen
Assay type: cell-based
Conditions: reducing IL-17A-receptor reporter activities; maximal effect at high compound concentrations
Give bare numbers, in %.

Known results for molecules:
>>> df
                              line_notation  recorded_measurement
0  CCOc1ccc(S(=O)(=O)c2c(C(=O)c3ccc(C)c(C)c3)cnc3ccccc23)cc1                    82
1  O=C(Nc1ccc(Cl)cc1Cl)c1cc(S(=O)(=O)N2CCCCCC2)ccc1F                    57
2  CCOc1ccc(S(=O)(=O)c2c(C(=O)c3ccc(CC)cc3)cnc3ccc(C)cc23)cc1                    44
3  CCc1ccc(S(=O)(=O)c2c(C(=O)c3ccc(C)c(C)c3)cnc3ccccc23)cc1                    57

Kindly review the next molecule as well.
Incoming: Report Emax for `CCc1ccc(S(=O)(=O)c2c(C(=O)c3ccccc3)cnc3ccc(CC)cc23)cc1` please.
Outgoing: 78

====

molecular target: TNF-a receptor (TNF-R1 reporter cells) (Homo sapiens); construct: expressed in transfected cells; development described in WO2022125865A2; experiment: TNF-a-receptor GFP reporter cell screen; assay type: cell-based; conditions: reducing TNF-a-receptor reporter activities; maximal effect at high compound concentrations
Endpoint: Emax (%)
Give bare numbers, in %.

In [3]: df
Out[3]:
                                   compound  recorded_measurement
0  Cc1ccc(Cn2c(CNS(=O)(=O)c3ccc(Cl)s3)nc3cccnc32)cc1                    64
1  O=C(NCc1cccc(Cl)c1)C1(Cc2cscn2)CC2CCC1N2 (stereo not drawn)                    68
2  CS(=O)(=O)c1ccc(C2(C(=O)N3CCSCC3)CCCCC2)cc1                    98
3  CN(Cc1ccc2nonc2c1)C(=O)C(c1ccc(F)cc1)N1CCCCC1 (stereo not drawn)                    66
4  O=C(CSC1=Nc2ccccc2N=C(c2ccc(F)cc2)C1)NCc1ccc(F)cc1                    76
5  CCCN(C/C=C/c1ccccc1)C(=O)CCc1cc2n(n1)CCCNC2                    90
6      COCCn1ccnc1CN(CCO)CCCOc1ccc(Cl)cc1Cl                    42
7  CCOC(=O)c1ccccc1NC(=O)N1CCCN(S(=O)(=O)c2ccc3c(ccn3CC)c2)CC1                    92

Shift focus to the following entry.
Incoming: Request: Emax, test system TNF-a receptor (TNF-R1 reporter cells) (Homo sapiens), entry `COc1ccc(NC(=O)CSc2nc3ccccc3n2CC(=O)N(C)C2CCCCC2)cc1`
Outgoing: 88

====

Target: TNF-a receptor (TNF-R1 reporter cells) (Homo sapiens, UniProt P19438)
Construct: expressed in transfected cells; development described in WO2022125865A2
Test: TNF-a-receptor GFP reporter cell screen
Type: cell-based
Conditions: reducing TNF-a-receptor reporter activities; maximal effect at high compound concentrations
Experimental: FIG. 5 is a dot plot showing the identification of small-molecule compounds that reduce IL-17A or TNF-a receptor activities. Small-molecule screens were performed with 114,665 compounds. Individual compounds were added to IL-17A-reporters or TNF-a-reporters following the addition of respective ligands such as IL-17A or TNF-a (25 ng/ml). The reporter cells were then incubated for additional 48 hours before subjecting them for microscopic analyses (GFP percentage was measured by microscope). […]
Emax below 70% gives no (0); Emax at or above it gives yes (1).

>>> print(df.to_string())
                                   compound    class
0  CCc1ccccc1NC(=O)CN1C(=O)COc2ccc(S(=O)(=O)Nc3ccccc3)cc21 [Compound 16]  yes (1)
1  COc1cccc(-c2nn(-c3ccccc3)cc2CN2CCC(NC(C)=O)C2)c1 (centres unmarked) [Compound 24]  yes (1)
2  O=c1n(Cc2cccc3ccccc23)nc(C2CCCNC2)n1-c1ccccc1 (centres unmarked) [Compound 62]   no (0)
3  CC(C)(CO)CNC1CC(C)(C)Cc2c1cnn2-c1cccc(F)c1 (centres unmarked) [Compound 63]   no (0)
4  Cc1ccc(Cn2c(CNS(=O)(=O)c3ccc(F)c(Cl)c3)nc3cccnc32)cc1 [Compound 45]   no (0)
5  COc1cccc(CNC(=O)CSC2=Nc3ccccc3N=C(c3ccc(F)cc3)C2)c1 [Compound 12]   no (0)
6  O=C(c1ccccc1OC(F)(F)C(F)F)N1CCNC(=O)C12CCCC2 [Compound 76]   no (0)
7  O=C(NCCNC(=O)C(c1ccc(F)cc1)N1CCCCC1)c1ccccc1Cl (centres unmarked) [Compound 25]   no (0)

Incoming: Is the recorded value of Emax equal to or greater than 70% for this compound? COc1cc(CN2CCCC(CNC(=O)COc3ccccc3OC)C2)ccc1F (centres unmarked) [Compound 49]
Outgoing: yes (1)

Incoming: Kindly determine if Emax recorded for CC(C)C1N=C2c3ccccc3N=C(SCC(=O)NCc3ccc(F)cc3)N2C1=O (centres unmarked) [Compound 61] is above or exactly 70%.
Outgoing: yes (1)

Incoming: Determine whether this compound has Emax no lower than 70%: CC(C)Oc1ccccc1-c1cccc(C(=O)NCCc2nncn2C)c1 [Compound 57]
Outgoing: no (0)

Incoming: Can COc1ccc(NC(=O)C(NS(=O)(=O)c2cccc3nsnc23)c2ccccc2)cc1 (centres unmarked) [Compound 38] be said to have Emax at or above 70%?
Outgoing: yes (1)

Incoming: I'd appreciate it if you could say whether O=C(NC1(CN2CCOCC2)CCCCC1)c1ccccc1N1CCOCC1 [Compound 40] has Emax at least equal to 70%.
Outgoing: yes (1)

Incoming: Confirm if Emax reported for the compound CC(C)CN1CCc2[nH]cnc2C12CCN(C(=O)c1cccc(F)c1)CC2 [Compound 27] is 70% or above.
Outgoing: no (0)

Incoming: Quick check: does COc1cc(C(=O)NCCc2csc3nc(-c4ccccc4C)nn23)cc(OC)c1OC [Compound 64] have Emax greater than or equal to 70%?
Outgoing: yes (1)

Incoming: Textbook exercise: given the entry COc1cc(NC(=O)C(Cc2ccccc2)NS(=O)(=O)c2cccs2)cc(OC)c1 (centres unmarked) [Compound 35] , state whether its Emax is greater than or equal to 70%.
Outgoing: yes (1)

Incoming: Assess whether reported Emax for Oc1cccc(CN2CCCC(NCc3cc(-c4ccccc4)no3)C2)c1 (centres unmarked) [Compound 51] sits at 70% or higher.
Outgoing: yes (1)
